Every entry's value here was drawn from paper PMC5916898.

Overview of recorded apparent K (half saturation) for various binders
Target: T1, ZNF148 (Homo sapiens, UniProt Q9UQR1)
T1 sequence: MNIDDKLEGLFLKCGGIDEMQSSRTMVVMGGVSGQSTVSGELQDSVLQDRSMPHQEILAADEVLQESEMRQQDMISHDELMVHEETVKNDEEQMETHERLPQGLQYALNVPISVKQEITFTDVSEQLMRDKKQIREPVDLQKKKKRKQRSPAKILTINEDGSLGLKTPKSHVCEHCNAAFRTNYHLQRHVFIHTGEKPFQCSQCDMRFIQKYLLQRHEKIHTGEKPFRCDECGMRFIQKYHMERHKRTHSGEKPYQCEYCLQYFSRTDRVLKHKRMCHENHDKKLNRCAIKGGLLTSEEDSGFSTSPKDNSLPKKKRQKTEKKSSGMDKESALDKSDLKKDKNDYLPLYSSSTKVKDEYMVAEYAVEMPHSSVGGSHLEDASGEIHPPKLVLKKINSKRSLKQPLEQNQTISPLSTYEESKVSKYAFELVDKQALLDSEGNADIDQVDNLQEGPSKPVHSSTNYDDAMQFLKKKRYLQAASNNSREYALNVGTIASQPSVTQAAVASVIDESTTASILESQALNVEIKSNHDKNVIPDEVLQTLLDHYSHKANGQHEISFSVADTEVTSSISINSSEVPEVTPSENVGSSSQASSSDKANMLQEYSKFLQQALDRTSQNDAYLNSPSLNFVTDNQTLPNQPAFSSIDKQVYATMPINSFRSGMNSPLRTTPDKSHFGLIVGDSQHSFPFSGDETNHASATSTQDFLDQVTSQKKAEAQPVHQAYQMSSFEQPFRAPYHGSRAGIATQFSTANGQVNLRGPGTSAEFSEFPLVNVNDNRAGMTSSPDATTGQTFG
Assay: pulldown; 150 mM NaCl, 50 mM Tris pH 8, 0.25% NP-40, 1 mM TCEP; 4 C, 2 h; 100 ug HeLa nuclear lysate
Settings: protein: extract; label: 5' biotin (strand 1)

- binder: "CTCF (dsDNA) DNA 1: TCAGAGTGGCGGCCAGCAGGGGGCGCCCTTGCCAGA DNA 2: TCTGGCAAGGGCGCCCCCTGCTGGCCGCCACTCTGA"
  readout unit: "nM"
  apparent K (half saturation): 63.7
- binder: "SP/KLF wild-type (dsDNA) DNA 1: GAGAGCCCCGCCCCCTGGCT DNA 2: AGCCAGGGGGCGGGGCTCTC"
  readout unit: "nM"
  apparent K (half saturation): 70.5
- binder: "TEAD (dsDNA) DNA 1: TCGGGACCCAGGCCTGGAATGTTTCCACC DNA 2: GGTGGAAACATTCCAGGCCTGGGTCCCGA"
  readout unit: "nM"
  apparent K (half saturation): 387
- binder: "TATA-box (dsDNA) DNA 1: GCGGCGCTCTATATAAGTGGGCAGTG DNA 2: CACTGCCCACTTATATAGAGCGCCGC"
  readout unit: "nM"
  apparent K (half saturation): 383
